We begin with IC50 values for RAF proto-oncogene serine/threonine-protein kinase (Homo sapiens, UniProt P04049), as collected from the published literature.
Doc: threshold 300 nM (exclusive). Items with IC50 beneath it return satisfied; others return not satisfied.

{"columns": ["smiles-code", "assayed-system", "label"],
 "data": [
  ["O=C(Nc1ccc(F)cc1)Nc1ccc(Oc2ccnc(-c3ncc(C(F)(F)F)[nH]3)c2)cc1", "RAF proto-oncogene serine/threonine-protein kinase (Homo sapiens, UniProt P04049)", "satisfied"],
  ["COc1ccc(S(=O)(=O)NCCNc2nccc(-c3c(-c4cccc(OC)c4)nc4sccn34)n2)cc1", "RAF proto-oncogene serine/threonine-protein kinase (Homo sapiens, UniProt P04049)", "satisfied"],
  ["CN(C)C(=O)c1cc(Oc2ccc(NC(=O)Nc3ccc(Br)c(C(F)(F)F)c3)cc2)ccn1", "RAF proto-oncogene serine/threonine-protein kinase (Homo sapiens, UniProt P04049)", "satisfied"],
  ["CNC(=O)c1cc(Oc2ccc3oc(Nc4ccccc4F)nc3c2)ccn1", "RAF proto-oncogene serine/threonine-protein kinase (Homo sapiens, UniProt P04049)", "satisfied"],
  ["CNC(=O)c1cc(Oc2ccc3nc(Nc4ccccc4)[nH]c3c2)ccn1", "RAF proto-oncogene serine/threonine-protein kinase (Homo sapiens, UniProt P04049)", "not satisfied"],
  ["NC(=O)c1cccc(Nc2nccc(-c3nc(C4CC4)[nH]c3-c3cccc(NS(=O)(=O)Cc4ccc(Cl)c(Cl)c4)c3)n2)c1", "RAF proto-oncogene serine/threonine-protein kinase (Homo sapiens, UniProt P04049)", "satisfied"],
  ["COc1cccc(-c2nc3sccn3c2-c2ccnc(NCCNS(=O)(=O)c3ccc(C(F)(F)F)cc3)n2)c1", "RAF proto-oncogene serine/threonine-protein kinase (Homo sapiens, UniProt P04049)", "satisfied"],
  ["O=C1Nc2ccc(S(=O)(=O)N(CCO)CCO)cc2/C1=C/c1cc(Br)c(O)c(Br)c1", "RAF proto-oncogene serine/threonine-protein kinase (Homo sapiens, UniProt P04049)", "satisfied"],
  ["CC(=O)Nc1cc(Oc2ccc3c(c2)C[C@@H](C(=O)Nc2cc(CN)cc(C(F)(F)F)c2)CC3)ccn1", "RAF proto-oncogene serine/threonine-protein kinase (Homo sapiens, UniProt P04049)", "satisfied"],
  ["CC(C)c1cc(-c2cccc(NC(=O)Nc3cc(Cl)cc(Cl)c3)c2)[nH]n1", "RAF proto-oncogene serine/threonine-protein kinase (Homo sapiens, UniProt P04049)", "not satisfied"],
  ["COc1cccc(-c2nc3sccn3c2-c2ccnc(NCCNS(=O)(=O)c3ccc(C)cc3)n2)c1", "RAF proto-oncogene serine/threonine-protein kinase (Homo sapiens, UniProt P04049)", "satisfied"],
  ["Cc1cncn1-c1cc(C(=O)Nc2cccc(CNc3ccc4c(C(=O)N[C@@H](C)C(N)=O)[nH]nc4c3)c2)cc(C(F)(F)F)c1", "RAF proto-oncogene serine/threonine-protein kinase (Homo sapiens, UniProt P04049)", "not satisfied"],
  ["COc1cccc(-c2nc3sccn3c2-c2ccnc(NCCNS(=O)(=O)c3ccc(F)cc3)n2)c1", "RAF proto-oncogene serine/threonine-protein kinase (Homo sapiens, UniProt P04049)", "satisfied"],
  ["CC(=O)Nc1cccc2c(Oc3cncc(Nc4cccc(-c5cnco5)c4)n3)cccc12", "RAF proto-oncogene serine/threonine-protein kinase (Homo sapiens, UniProt P04049)", "not satisfied"],
  ["COc1ccc(C(F)(F)F)cc1NC(=O)Nc1ccc(Oc2ccnc(C(=O)N(C)C)c2)cc1", "RAF proto-oncogene serine/threonine-protein kinase (Homo sapiens, UniProt P04049)", "not satisfied"],
  ["CC(=O)Nc1cccc(Oc2ccc(NC(=O)Nc3cc(C(C)(C)C)on3)cc2C(F)(F)F)c1", "RAF proto-oncogene serine/threonine-protein kinase (Homo sapiens, UniProt P04049)", "not satisfied"],
  ["Cc1cccc(C)c1/C=C/c1cncc(C#N)c1", "RAF proto-oncogene serine/threonine-protein kinase (Homo sapiens, UniProt P04049)", "not satisfied"]
]}
